Measured values drawn from ChEMBL document CHEMBL1136272 for this set.

Record: log10(IC50) reported on 5-hydroxytryptamine receptor 1A (Rattus norvegicus).
Sequence (P19327 whole entry): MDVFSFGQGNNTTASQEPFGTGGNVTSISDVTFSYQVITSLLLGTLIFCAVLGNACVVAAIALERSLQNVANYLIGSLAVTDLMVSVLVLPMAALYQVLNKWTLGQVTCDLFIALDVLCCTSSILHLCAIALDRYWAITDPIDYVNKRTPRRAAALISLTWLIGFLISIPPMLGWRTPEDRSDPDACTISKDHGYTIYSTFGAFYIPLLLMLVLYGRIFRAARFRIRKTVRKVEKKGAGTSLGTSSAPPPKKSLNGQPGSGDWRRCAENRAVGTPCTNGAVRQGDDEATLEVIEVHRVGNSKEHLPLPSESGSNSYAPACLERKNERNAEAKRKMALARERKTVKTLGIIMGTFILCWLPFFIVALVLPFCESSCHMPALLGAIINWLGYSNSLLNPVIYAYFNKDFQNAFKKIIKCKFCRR
READOUT NAME: log10(IC50) (log10 of the value in nM)

COMPOUND | MEASURED
OC1(c2ccc3c(c2)OCO3)CCC(N2CCN(Cc3cccc(Cl)c3)CC2)CC1 (configuration not stated) | 0.78
OC1(c2ccc3c(c2)OCO3)CCC(N2CCN(Cc3cccc(F)c3F)CC2)CC1 (configuration not stated) | 1.23
OC1(c2ccc3c(c2)OCO3)CCC(N2CCN(Cc3c(F)cccc3F)CC2)CC1 (configuration not stated) | 2.04
OC1(c2ccc(F)cc2)CCC(N2CCN(Cc3ccccc3)CC2)CC1 (configuration not stated) | 2.41
COc1cccc(CN2CCN(C3CCC(O)(c4ccc5c(c4)OCO5)CC3)CC2)c1 (configuration not stated) | 0.34
COc1ccc(C2(O)CCC(N3CCN(Cc4ccccc4)CC3)CC2)cc1OC (configuration not stated) | 2.15
OC1(c2ccc3c(c2)OCO3)CCC(N2CCN(Cc3ccccc3Cl)CC2)CC1 (configuration not stated) | 0.28
OC1(c2ccc3c(c2)OCO3)CCC(N2CCN(Cc3ccc(Cl)cc3)CC2)CC1 (configuration not stated) | 1.90
OC1(c2ccc3c(c2)OCO3)CCC(N2CCN(Cc3ccccc3Br)CC2)CC1 (configuration not stated) | 0.08
OC1(c2ccccc2)CCC(N2CCN(Cc3ccccc3)CC2)CC1 (configuration not stated) | 2.66
COc1ccccc1C1(O)CCC(N2CCN(Cc3ccccc3)CC2)CC1 (configuration not stated) | 1.78
OC1(c2ccc3c(c2)OCO3)CCC(N2CCN(Cc3cc(F)cc(F)c3)CC2)CC1 (configuration not stated) | 1.32
